Target: UniProtKB Q12851
Assay: GCK kinase inhibitory activity
Assay type: biochemical
Conditions: read-out: Kinase inhibitory efficacy, GI50 GCK
Protocol: GI50 values were calculated by measuring the inhibitory efficacy of the compounds of the present invention against both GCK and ACK1 kinases.
parameter: GI50

{"sample.smiles": "CCN1CCN(C(=O)c2ccc(Nc3ncc4c(n3)N(C)C(=O)N(c3cc(NC(=O)Nc5ccccc5OC)ccc3C)C4)cn2)CC1", "parameter": "GI50", "endpoint.result": "< 0.03 µM"}
{"sample.smiles": "Cc1ccc(Nc2ncc3c(n2)N(C)C(=O)N(c2cc(NC(=O)Nc4ccccc4OC(F)(F)F)ccc2C)C3)cn1", "parameter": "GI50", "endpoint.result": "≥ 0.3 µM"}
{"sample.smiles": "Cc1ccc(Nc2ncc3c(n2)N(C)C(=O)N(c2cc(NC(=O)Nc4ccccc4C)ccc2C)C3)cn1", "parameter": "GI50", "endpoint.result": "0.1 to 0.3 µM"}
{"sample.smiles": "Cc1ccc(Nc2ncc3c(n2)N(C)C(=O)N(c2cc(NC(=O)Nc4ccccc4C(F)(F)F)ccc2C)C3)cn1", "parameter": "GI50", "endpoint.result": "≥ 0.3 µM"}

* * *

Below: a set of entries, each annotated with reported GI50.
test system: OCI-AML3 (N-Ras Q61L); assay: Proliferation inhibitory activity, OCI-AML3; format: cell-based; settings: Homo sapiens, OCI-AML-3; OCI-AML3 (N-Ras Q61L) cell line; read-out: Proliferation inhibitory efficacy (GI50, μM) OCI-AML3 (N-Ras Q61L)
parameter: GI50

{"sample.smiles": "COc1ccccc1NC(=O)Nc1ccc(C)c(N2Cc3cnc(Nc4cnn(C)c4)nc3N(C)C2=O)c1", "endpoint.result": "< 0.5 µM"}
{"sample.smiles": "CCN1CCN(c2ccc(Nc3ncc4c(n3)N(C)C(=O)N(c3cc(NC(=O)Nc5ccccc5OC)ccc3C)C4)cc2)CC1", "endpoint.result": "< 0.5 µM"}
{"sample.smiles": "Cc1ccc(Nc2ncc3c(n2)N(C)C(=O)N(c2cc(NC(=O)Nc4ccccc4)ccc2C)C3)cn1", "endpoint.result": "0.5 to 3 µM"}
{"sample.smiles": "COc1ccccc1NC(=O)Nc1ccc(C)c(N2Cc3cnc(Nc4ccc(N5CCC(C(N)=O)CC5)nc4)nc3N(C)C2=O)c1", "endpoint.result": "< 0.5 µM"}
{"sample.smiles": "COc1ccccc1NC(=O)Nc1ccc(C)c(N2Cc3cnc(Nc4ccc(N5CCN(C(C)=O)CC5)nc4)nc3N(C)C2=O)c1", "endpoint.result": "< 0.5 µM"}
{"sample.smiles": "COc1ccccc1NC(=O)Nc1ccc(C)c(N2Cc3cnc(Nc4ccc(C)nc4)nc3N(C)C2=O)c1", "endpoint.result": "< 0.5 µM"}
{"sample.smiles": "COc1ccc(NC(=O)Nc2ccc(C)c(N3Cc4cnc(Nc5ccc(C)nc5)nc4N(C)C3=O)c2)cc1", "endpoint.result": "< 0.5 µM"}

* * *

Below: a set of entries, each annotated with reported GI50.
target: GCK (Homo sapiens); assay: GCK kinase inhibitory activity; type: biochemical; conditions: read-out: Kinase inhibitory efficacy, GI50 GCK
Sequence (Q12851 whole entry): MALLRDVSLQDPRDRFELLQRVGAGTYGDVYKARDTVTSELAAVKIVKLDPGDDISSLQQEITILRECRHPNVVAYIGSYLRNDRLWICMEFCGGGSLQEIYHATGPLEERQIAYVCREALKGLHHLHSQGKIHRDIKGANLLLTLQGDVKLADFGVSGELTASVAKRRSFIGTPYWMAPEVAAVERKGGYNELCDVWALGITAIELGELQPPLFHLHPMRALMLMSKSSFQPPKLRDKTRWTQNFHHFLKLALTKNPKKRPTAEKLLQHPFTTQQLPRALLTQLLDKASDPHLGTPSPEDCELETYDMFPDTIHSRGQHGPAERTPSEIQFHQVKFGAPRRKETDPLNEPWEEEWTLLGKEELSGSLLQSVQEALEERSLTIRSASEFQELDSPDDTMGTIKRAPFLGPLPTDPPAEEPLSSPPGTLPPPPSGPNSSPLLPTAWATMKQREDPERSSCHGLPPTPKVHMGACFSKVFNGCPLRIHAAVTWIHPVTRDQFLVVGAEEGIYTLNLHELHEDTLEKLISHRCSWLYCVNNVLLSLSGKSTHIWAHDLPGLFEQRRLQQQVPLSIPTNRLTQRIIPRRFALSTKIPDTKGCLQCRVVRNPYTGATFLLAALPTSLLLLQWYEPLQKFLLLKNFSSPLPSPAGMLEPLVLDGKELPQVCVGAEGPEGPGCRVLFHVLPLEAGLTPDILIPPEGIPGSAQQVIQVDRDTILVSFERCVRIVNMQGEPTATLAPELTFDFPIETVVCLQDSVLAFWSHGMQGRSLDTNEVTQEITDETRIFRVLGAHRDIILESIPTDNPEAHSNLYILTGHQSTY

{"sample.smiles": "CCN1CCN(c2ccc(Nc3ncc4c(n3)N(C)C(=O)N(c3cc(NC(=O)Nc5ccccc5OC)ccc3C)C4)cn2)CC1", "GI50": "< 30 nM"}
{"sample.smiles": "Cc1ccc(Nc2ncc3c(n2)N(C)C(=O)N(c2cc(NC(=O)Nc4ccccc4)ccc2C)C3)cn1", "GI50": "100 to 300 nM"}
{"sample.smiles": "Cc1ccc(Nc2ncc3c(n2)N(C)C(=O)N(c2cc(NC(=O)Nc4ccc(Cl)c(C(F)(F)F)c4)ccc2C)C3)cn1", "GI50": "100 to 300 nM"}
{"sample.smiles": "COc1ccccc1NC(=O)Nc1ccc(C)c(N2Cc3cnc(Nc4ccc(C(=O)NC5CC5)nc4)nc3N(C)C2=O)c1", "GI50": "100 to 300 nM"}
{"sample.smiles": "CNC(=O)c1ccc(Nc2ncc3c(n2)N(C)C(=O)N(c2cc(NC(=O)Nc4ccccc4OC)ccc2C)C3)cn1", "GI50": "100 to 300 nM"}
{"sample.smiles": "COc1ccccc1NC(=O)Nc1ccc(C)c(N2Cc3cnc(Nc4ccc(N5CCN(C(C)=O)CC5)nc4)nc3N(C)C2=O)c1", "GI50": "< 30 nM"}
{"sample.smiles": "COc1ccccc1NC(=O)Nc1ccc(C)c(N2Cc3cnc(Nc4ccc(C)nc4)nc3N(C)C2=O)c1", "GI50": "30 to 100 nM"}
{"sample.smiles": "COc1ccccc1NC(=O)Nc1ccc(C)c(N2Cc3cnc(Nc4ccc(N5CCC(C(N)=O)CC5)nc4)nc3N(C)C2=O)c1", "GI50": "< 30 nM"}
{"sample.smiles": "COc1ccc(NC(=O)Nc2ccc(C)c(N3Cc4cnc(Nc5ccc(C)nc5)nc4N(C)C3=O)c2)cc1", "GI50": "30 to 100 nM"}
{"sample.smiles": "CCN1CCN(c2ccc(Nc3ncc4c(n3)N(C)C(=O)N(c3cc(NC(=O)Nc5ccccc5OC)ccc3C)C4)cc2)CC1", "GI50": "< 30 nM"}
{"sample.smiles": "Cc1ccc(Nc2ncc3c(n2)N(C)C(=O)N(c2cc(NC(=O)Nc4cccc(Cl)c4Cl)ccc2C)C3)cn1", "GI50": "100 to 300 nM"}
{"sample.smiles": "COc1cccc(NC(=O)Nc2ccc(C)c(N3Cc4cnc(Nc5ccc(C)nc5)nc4N(C)C3=O)c2)c1", "GI50": "30 to 100 nM"}
{"sample.smiles": "Cc1ccc(Nc2ncc3c(n2)N(C)C(=O)N(c2cc(NC(=O)Nc4cccc(C(F)(F)F)c4)ccc2C)C3)cn1", "GI50": "100 to 300 nM"}
{"sample.smiles": "COc1ccccc1NC(=O)Nc1ccc(C)c(N2Cc3cnc(Nc4cnn(C)c4)nc3N(C)C2=O)c1", "GI50": "< 30 nM"}

* * *

system: OCI-AML3 (N-Ras Q61L); assay: Proliferation inhibitory activity, OCI-AML3; format: cell-based; details: Homo sapiens, OCI-AML-3; OCI-AML3 (N-Ras Q61L) cell line; read-out: Proliferation inhibitory efficacy (GI50, μM) OCI-AML3 (N-Ras Q61L)
parameter: GI50

{"compound": "COc1ccccc1NC(=O)Nc1ccc(C)c(N2Cc3cnc(Nc4ccc(C(=O)NC5CC5)nc4)nc3N(C)C2=O)c1 [Compound No. 16]", "parameter": "GI50", "endpoint.result": "< 0.5 µM"}
{"compound": "Cc1ccc(Nc2ncc3c(n2)N(C)C(=O)N(c2cc(NC(=O)Nc4ccccc4C(F)(F)F)ccc2C)C3)cn1 [Compound No. 4]", "parameter": "GI50", "endpoint.result": "< 0.5 µM"}
{"compound": "CNC(=O)c1ccc(Nc2ncc3c(n2)N(C)C(=O)N(c2cc(NC(=O)Nc4ccccc4OC)ccc2C)C3)cn1 [Compound No. 15]", "parameter": "GI50", "endpoint.result": "< 0.5 µM"}
{"compound": "Cc1ccc(Nc2ncc3c(n2)N(C)C(=O)N(c2cc(NC(=O)Nc4cccc(Cl)c4Cl)ccc2C)C3)cn1 [Compound No. 6]", "parameter": "GI50", "endpoint.result": "< 0.5 µM"}
{"compound": "Cc1ccc(Nc2ncc3c(n2)N(C)C(=O)N(c2cc(NC(=O)Nc4ccccc4OC(F)(F)F)ccc2C)C3)cn1 [Compound No. 3]", "parameter": "GI50", "endpoint.result": "0.5 to 3 µM"}
{"compound": "COc1cccc(NC(=O)Nc2ccc(C)c(N3Cc4cnc(Nc5ccc(C)nc5)nc4N(C)C3=O)c2)c1 [Compound No. 8]", "parameter": "GI50", "endpoint.result": "0.5 to 3 µM"}
{"compound": "CCN1CCN(C(=O)c2ccc(Nc3ncc4c(n3)N(C)C(=O)N(c3cc(NC(=O)Nc5ccccc5OC)ccc3C)C4)cn2)CC1 [Compound No. 14]", "parameter": "GI50", "endpoint.result": "< 0.5 µM"}

* * *

Below: a set of entries, each annotated with reported GI50.
target: ACK1 (Homo sapiens); experiment: ACK1 kinase inhibitory activity; assay type: biochemical; conditions: read-out: Kinase inhibitory efficacy, GI50 ACK1
Sequence (Q07912 whole entry): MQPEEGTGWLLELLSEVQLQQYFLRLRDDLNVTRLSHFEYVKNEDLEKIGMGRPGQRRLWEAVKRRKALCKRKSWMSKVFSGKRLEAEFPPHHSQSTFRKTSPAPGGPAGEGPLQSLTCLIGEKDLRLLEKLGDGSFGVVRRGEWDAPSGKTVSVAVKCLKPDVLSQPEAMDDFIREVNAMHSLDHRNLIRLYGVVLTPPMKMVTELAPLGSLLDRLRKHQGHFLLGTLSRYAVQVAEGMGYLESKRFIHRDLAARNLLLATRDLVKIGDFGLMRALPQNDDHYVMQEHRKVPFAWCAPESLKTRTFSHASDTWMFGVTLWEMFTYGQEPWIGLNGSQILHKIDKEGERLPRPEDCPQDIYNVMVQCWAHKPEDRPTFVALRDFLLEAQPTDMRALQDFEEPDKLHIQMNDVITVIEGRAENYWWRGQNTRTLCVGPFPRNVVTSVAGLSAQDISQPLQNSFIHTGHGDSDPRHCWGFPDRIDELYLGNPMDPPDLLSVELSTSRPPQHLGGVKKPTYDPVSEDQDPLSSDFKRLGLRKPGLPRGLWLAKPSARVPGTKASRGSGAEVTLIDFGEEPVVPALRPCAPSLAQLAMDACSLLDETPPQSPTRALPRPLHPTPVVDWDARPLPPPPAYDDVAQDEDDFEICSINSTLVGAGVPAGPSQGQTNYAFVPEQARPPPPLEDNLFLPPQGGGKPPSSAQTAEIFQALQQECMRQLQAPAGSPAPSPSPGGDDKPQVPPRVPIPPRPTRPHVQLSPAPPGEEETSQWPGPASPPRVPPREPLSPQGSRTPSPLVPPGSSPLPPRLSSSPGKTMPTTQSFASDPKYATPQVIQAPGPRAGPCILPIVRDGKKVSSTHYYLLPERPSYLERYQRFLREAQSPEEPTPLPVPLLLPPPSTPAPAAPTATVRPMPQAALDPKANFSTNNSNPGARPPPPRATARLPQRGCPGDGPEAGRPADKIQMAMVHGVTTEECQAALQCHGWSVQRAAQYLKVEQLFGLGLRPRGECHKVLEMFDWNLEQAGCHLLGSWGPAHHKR

{"sample.smiles": "COc1cccc(NC(=O)Nc2ccc(C)c(N3Cc4cnc(Nc5ccc(C)nc5)nc4N(C)C3=O)c2)c1", "GI50": "< 30 nM"}
{"sample.smiles": "COc1ccccc1NC(=O)Nc1ccc(C)c(N2Cc3cnc(Nc4ccc(C)nc4)nc3N(C)C2=O)c1", "GI50": "< 30 nM"}
{"sample.smiles": "Cc1ccc(Nc2ncc3c(n2)N(C)C(=O)N(c2cc(NC(=O)Nc4ccccc4)ccc2C)C3)cn1", "GI50": "< 30 nM"}
{"sample.smiles": "COc1ccccc1NC(=O)Nc1ccc(C)c(N2Cc3cnc(Nc4cnn(C)c4)nc3N(C)C2=O)c1", "GI50": "< 30 nM"}
{"sample.smiles": "COc1ccccc1NC(=O)Nc1ccc(C)c(N2Cc3cnc(Nc4ccc(N5CCN(C(C)=O)CC5)nc4)nc3N(C)C2=O)c1", "GI50": "< 30 nM"}
{"sample.smiles": "COc1ccccc1NC(=O)Nc1ccc(C)c(N2Cc3cnc(Nc4ccc(C(=O)NC5CC5)nc4)nc3N(C)C2=O)c1", "GI50": "< 30 nM"}
{"sample.smiles": "Cc1ccc(Nc2ncc3c(n2)N(C)C(=O)N(c2cc(NC(=O)Nc4cccc(C(F)(F)F)c4)ccc2C)C3)cn1", "GI50": "< 30 nM"}
{"sample.smiles": "COc1ccc(NC(=O)Nc2ccc(C)c(N3Cc4cnc(Nc5ccc(C)nc5)nc4N(C)C3=O)c2)cc1", "GI50": "30 to 100 nM"}
{"sample.smiles": "Cc1ccc(Nc2ncc3c(n2)N(C)C(=O)N(c2cc(NC(=O)Nc4ccc(Cl)c(C(F)(F)F)c4)ccc2C)C3)cn1", "GI50": "30 to 100 nM"}
{"sample.smiles": "CCN1CCN(c2ccc(Nc3ncc4c(n3)N(C)C(=O)N(c3cc(NC(=O)Nc5ccccc5OC)ccc3C)C4)cn2)CC1", "GI50": "< 30 nM"}
{"sample.smiles": "Cc1ccc(Nc2ncc3c(n2)N(C)C(=O)N(c2cc(NC(=O)Nc4cccc(Cl)c4Cl)ccc2C)C3)cn1", "GI50": "< 30 nM"}
